# assay-system: Corticotropin-releasing factor receptor 1 (Homo sapiens, UniProt P34998)
# Sequence (P34998 whole entry): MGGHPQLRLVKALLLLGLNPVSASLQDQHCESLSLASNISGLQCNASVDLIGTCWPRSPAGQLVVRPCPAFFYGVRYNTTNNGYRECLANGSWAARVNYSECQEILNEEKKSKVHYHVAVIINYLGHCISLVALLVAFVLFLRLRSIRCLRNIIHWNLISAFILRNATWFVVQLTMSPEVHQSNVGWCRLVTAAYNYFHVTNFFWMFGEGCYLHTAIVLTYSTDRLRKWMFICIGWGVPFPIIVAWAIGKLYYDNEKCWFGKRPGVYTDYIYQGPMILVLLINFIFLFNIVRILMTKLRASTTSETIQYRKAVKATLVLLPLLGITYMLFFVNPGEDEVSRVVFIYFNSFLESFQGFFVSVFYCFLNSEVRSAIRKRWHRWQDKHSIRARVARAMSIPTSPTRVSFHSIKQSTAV
# test-summary: Displacement of [125I]-CRF from human CRF1 receptor expressed in HEK293 cells after 2 hrs
# Type: cell-based
Threshold 100 nM: IC50 strictly smaller gives yes, otherwise no.

mol-smiles | qualitative-label
CCN(CC)c1ccc(C)c2nc(-c3c(OC)cc(COC)cc3OC)c(Cl)cc12 | yes
CCCN(CCC)c1ccc(CC)c2nc(-c3c(OC)cc(COC)cc3OC)c(C)cc12 | no
COCc1cc(OC)c(-c2nc3c(C)ccc(N(CC4CC4)C4CCOCC4)c3cc2C)c(OC)c1 | no
COCCN(C)c1ccc(C)c2nc(-c3c(OC)cc(COC)cc3OC)c(C)cc12 | yes
CCN(CC)c1ccc(C)c2nc(-c3c(OC)cc(COC)cc3OC)c(F)cc12 | no

As a next step, examine the molecule that follows.
Quick check: IC50 of CCN(CCOC)c1ccc(C)c2nc(-c3c(OC)cc(COC)cc3OC)c(C)cc12 under 100 nM?
no
